System: Staph. aureus 1777 E
Test: MIC, liquid medium test tube series dilution test
Type: cell-based, Staphylococcus aureus
Settings: 24 hours, 37°C
experimental-readout: MIC (units/ml)

Use these answered entries as a reference point.
compound: CSc1ccc(C(NC(=O)N2CCNC2=O)C(=O)N[C@@H]2C(=O)N3[C@@H]2SC(C)(C)[C@@H]3C(=O)O)cc1 (stereo partly shown) [Example 55]
MIC, units/ml: 200
//
compound: CN(C(=O)N[C@@H](C(=O)N[C@@H]1C(=O)N2[C@@H]1SC(C)(C)[C@@H]2C(=O)O)c1ccccc1)C(=O)N1CCOCC1
MIC, units/ml: 50
//
compound: CC1(C)S[C@@H]2[C@H](NC(=O)[C@H](NC(=O)N3CCNC3=O)c3ccccc3)C(=O)N2[C@H]1C(=O)O [Example 51]
MIC, units/ml: 400
//
compound: CCCCOC(=O)N(C)C(=O)N[C@@H](C(=O)N[C@@H]1C(=O)N2[C@@H]1SC(C)(C)[C@@H]2C(=O)O)c1ccccc1 [Example 12]
MIC, units/ml: 400
//
compound: CCN(C(=O)N[C@@H](C(=O)N[C@@H]1C(=O)N2[C@@H]1SC(C)(C)[C@@H]2C(=O)O)c1ccccc1)C(=O)c1ccccc1
MIC, units/ml: 50
//
compound: CCOC(=O)N(C)C(=O)N[C@@H](C(=O)N[C@@H]1C(=O)N2[C@@H]1SC(C)(C)[C@@H]2C(=O)O)c1ccccc1
MIC, units/ml: 200
//
compound: CN(C(=O)CCCl)C(=O)N[C@@H](C(=O)N[C@@H]1C(=O)N2[C@@H]1SC(C)(C)[C@@H]2C(=O)O)c1ccccc1
MIC, units/ml: 50
//
compound: CN(C(=O)N[C@@H](C(=O)N[C@@H]1C(=O)N2[C@@H]1SC(C)(C)[C@@H]2C(=O)O)c1ccccc1)C(=O)OC1CCCCC1 [Example 29]
MIC, units/ml: 200

P: C=CCN(C(=O)N[C@@H](C(=O)N[C@@H]1C(=O)N2[C@@H]1SC(C)(C)[C@@H]2C(=O)O)c1ccccc1)C(=O)c1ccccc1
Q: Cc1ccc(C(NC(=O)N(C)C(=O)N(C)C)C(=O)N[C@@H]2C(=O)N3[C@@H]2SC(C)(C)[C@@H]3C(=O)O)cc1 (stereo partly shown)
INPUT: Consider P and Q . Which of these has its MIC at a higher number? Your answer should be the label attached to the chosen record.
OUTPUT: Q

a: CC1(C)S[C@@H]2[C@H](NC(=O)[C@H](NC(=O)N3CCNC3=S)c3ccccc3)C(=O)N2[C@H]1C(=O)O
b: Cc1ccccc1C(=O)N(C)C(=O)N[C@@H](C(=O)N[C@@H]1C(=O)N2[C@@H]1SC(C)(C)[C@@H]2C(=O)O)c1ccccc1
c: CC(=O)N(C)C(=O)NC(C(=O)N[C@@H]1C(=O)N2[C@@H]1SC(C)(C)[C@@H]2C(=O)O)c1cccs1 (stereo partly shown)
d: CC1(C)S[C@@H]2[C@H](NC(=O)[C@H](NC(=O)N3CCNC3=O)c3ccccc3)C(=O)N2[C@H]1C(=O)O [Example 53]
INPUT: Ordering: ascending MIC. Respond with an ordered listing of the labels, as requested.
OUTPUT: b, a, d, c

###

System: Klebsiella 63
Experiment: MIC, liquid medium test tube series dilution test
Assay type: cell-based
Details: Klebsiella 63, 24 hours, 37°C
experimental-readout: MIC

Use these answered entries as a reference point.
compound: CCCN(C(C)=O)C(=O)N[C@@H](C(=O)N[C@@H]1C(=O)N2[C@@H]1SC(C)(C)[C@@H]2C(=O)O)c1ccccc1
MIC: 100-500 units/ml
--
compound: CN(C(=O)NC(C(=O)N[C@@H]1C(=O)N2[C@@H]1SC(C)(C)[C@@H]2C(=O)O)c1cccs1)C(=O)c1ccco1 (stereo partly drawn)
MIC: 20-100 units/ml
--
compound: CN(C(=O)NC(C(=O)N[C@@H]1C(=O)N2[C@@H]1SC(C)(C)[C@@H]2C(=O)O)c1cccs1)C(=O)c1ccccc1Cl (stereo partly drawn)
MIC: 400 units/ml
--
compound: CN(C(=O)CCC(Cl)(Cl)Cl)C(=O)N[C@@H](C(=O)N[C@@H]1C(=O)N2[C@@H]1SC(C)(C)[C@@H]2C(=O)O)c1ccccc1
MIC: 12.5 units/ml

INPUT: May I ask what MIC has been recorded for CCOC(=O)N(C)C(=O)NC(C(=O)N[C@@H]1C(=O)N2[C@@H]1SC(C)(C)[C@@H]2C(=O)O)c1ccc(SC)cc1 (stereo partly drawn) ?
OUTPUT: 20-100 units/ml

INPUT: Next compound up: COC(=O)N(C)C(=O)NC(C(=O)N[C@@H]1C(=O)N2[C@@H]1SC(C)(C)[C@@H]2C(=O)O)c1ccc(OC)cc1 (stereo partly drawn)
OUTPUT: 20-100 units/ml

###

Test system: Psdm. aerug. Walter
Assay: MIC, liquid medium test tube series dilution test
Assay type: cell-based, Pseudomonas aerug.
Details: 24 hours, 37°C
experimental-readout: MIC

Use these answered entries as a reference point.
molecule: CN(C(=O)N[C@@H](C(=O)N[C@@H]1C(=O)N2[C@@H]1SC(C)(C)[C@@H]2C(=O)O)c1ccccc1)C(=O)c1ccc(Cl)cc1
target-entity: Psdm. aerug. Walter
MIC: 4-20 units/ml

molecule: C=CCOC(=O)N(C)C(=O)N[C@@H](C(=O)N[C@@H]1C(=O)N2[C@@H]1SC(C)(C)[C@@H]2C(=O)O)c1ccccc1 [Example 68]
target-entity: Psdm. aerug. Walter
MIC: 12.5 units/ml

molecule: CN(C(=O)NC(C(=O)N[C@@H]1C(=O)N2[C@@H]1SC(C)(C)[C@@H]2C(=O)O)c1c(Cl)cccc1Cl)C(=O)c1ccccc1 (stereo partly shown) [Example 32]
target-entity: Psdm. aerug. Walter
MIC: 100-500 units/ml

molecule: CCN(C(=O)N[C@@H](C(=O)N[C@@H]1C(=O)N2[C@@H]1SC(C)(C)[C@@H]2C(=O)O)c1ccccc1)C(=O)c1ccc(OC)c([N+](=O)[O-])c1
target-entity: Psdm. aerug. Walter
MIC: 20-100 units/ml

molecule: CSc1ccc(C(NC(=O)N2CCNC2=O)C(=O)N[C@@H]2C(=O)N3[C@@H]2SC(C)(C)[C@@H]3C(=O)O)cc1 (stereo partly shown) [Example 54]
target-entity: Psdm. aerug. Walter
MIC: 25 units/ml

INPUT: May I ask what MIC has been recorded for COC(=O)N(C)C(=O)NC(C(=O)N[C@@H]1C(=O)N2[C@@H]1SC(C)(C)[C@@H]2C(=O)O)c1cccs1 (stereo partly shown) ?
OUTPUT: 100-500 units/ml

INPUT: Next molecule up: Cc1ccc(C(NC(=O)N2CCNC2=O)C(=O)N[C@@H]2C(=O)N3[C@@H]2SC(C)(C)[C@@H]3C(=O)O)cc1 (stereo partly shown) [Example 46]
OUTPUT: 25 units/ml

INPUT: Next molecule up: Cc1ccc(C(NC(=O)N(C)C(=O)N(C)C)C(=O)N[C@@H]2C(=O)N3[C@@H]2SC(C)(C)[C@@H]3C(=O)O)cc1 (stereo partly shown)
OUTPUT: > 400 units/ml

INPUT: Next molecule up: CN(C(=O)N[C@@H](C(=O)N[C@@H]1C(=O)N2[C@@H]1SC(C)(C)[C@@H]2C(=O)O)c1ccccc1)C(=O)N1CCOCC1
OUTPUT: 100 units/ml

INPUT: Next molecule up: COC(=O)N(C)C(=O)NC(C(=O)N[C@@H]1C(=O)N2[C@@H]1SC(C)(C)[C@@H]2C(=O)O)c1c(Cl)cccc1Cl (stereo partly shown)
OUTPUT: > 500 units/ml

INPUT: Next molecule up: CC(=O)N(C)C(=O)NC(C(=O)N[C@@H]1C(=O)N2[C@@H]1SC(C)(C)[C@@H]2C(=O)O)c1cccs1 (stereo partly shown)
OUTPUT: 400 units/ml

INPUT: Next molecule up: CC(C)C(=O)N(C)C(=O)N[C@@H](C(=O)N[C@@H]1C(=O)N2[C@@H]1SC(C)(C)[C@@H]2C(=O)O)c1ccccc1
OUTPUT: ~20 units/ml

###

System: Psdm. aerug. Walter
Experiment: MIC, liquid medium test tube series dilution test
Format: cell-based, Pseudomonas aerug.
Details: 24 hours, 37°C
Reported MIC values are given for each entry in this list.

INPUT: May I ask what MIC has been recorded for CN(C(=O)C=Cc1cccc([N+](=O)[O-])c1)C(=O)N[C@@H](C(=O)N[C@@H]1C(=O)N2[C@@H]1SC(C)(C)[C@@H]2C(=O)O)c1ccccc1 [Example 131] ?
OUTPUT: 0.8-4 units/ml

INPUT: Next compound up: CN(C)C(=O)N(C)C(=O)NC(C(=O)N[C@@H]1C(=O)N2[C@@H]1SC(C)(C)[C@@H]2C(=O)O)c1cccs1 (stereo partly shown) [Example 23]
OUTPUT: > 500 units/ml

INPUT: Next compound up: C=CCN(C(C)=O)C(=O)N[C@@H](C(=O)N[C@@H]1C(=O)N2[C@@H]1SC(C)(C)[C@@H]2C(=O)O)c1ccccc1 [Example 1]
OUTPUT: 200 units/ml

The reported measurements were obtained from patent US3974140A.
